Entries and their CC50 at 48 h values follow.
- Test summary: Cytotoxicity against human HEK293 cells assessed as cell viability after 48 hrs by XTT based calorimetric assay
- Assay setup: HEK293 cells, read-out: LC50

Example cases with answers are listed next.
C[C@H](N)[C@H]1O[C@@H](O[C@@H]2[C@@H](O)[C@H](NC(=O)[C@@H](O)CCN)C[C@H](N)[C@H]2O[C@H]2O[C@H]([C@@H](C)O)[C@@H](O)[C@H](O)[C@H]2N)[C@H](O)[C@@H]1O = 5.1 mM
C[C@@H](N)[C@H]1O[C@@H](O[C@@H]2[C@@H](O)[C@H](N)C[C@H](N)[C@H]2O[C@H]2O[C@H]([C@@H](C)O)[C@@H](O)[C@H](O)[C@H]2N)[C@H](O)[C@@H]1O = 16.5 mM
NCC[C@H](O)C(=O)N[C@@H]1C[C@H](N)[C@@H](O[C@H]2O[C@H](CO)[C@@H](O)[C@H](O)[C@H]2N)[C@H](O[C@@H]2O[C@H](CN)[C@@H](O)[C@H]2O)[C@H]1O = 5.5 mM
NC[C@H]1O[C@@H](O[C@@H]2[C@@H](O)[C@H](N)C[C@H](N)[C@H]2O[C@H]2O[C@H](CO)[C@@H](O)[C@H](O)[C@H]2N)[C@H](O)[C@@H]1O = 21.9 mM
C[C@@H](O)[C@H]1O[C@H](O[C@H]2[C@H](O[C@@H]3O[C@H](CN)[C@@H](O)[C@H]3O)[C@@H](O)[C@H](NC(=O)[C@@H](O)CCN)C[C@@H]2N)[C@H](N)[C@@H](O)[C@@H]1O = 5.8 mM

Record C[C@H](N)[C@H]1O[C@@H](O[C@@H]2[C@@H](O)[C@H](N)C[C@H](N)[C@H]2O[C@H]2O[C@H]([C@@H](C)O)[C@@H](O)[C@H](O)[C@H]2N)[C@H](O)[C@@H]1O . Reported CC50 at 48 h: 5.4 mM

compound C[C@@H](N)[C@H]1O[C@@H](O[C@@H]2[C@@H](O)[C@H](NC(=O)[C@@H](O)CCN)C[C@H](N)[C@H]2O[C@H]2O[C@H]([C@@H](C)O)[C@@H](O)[C@H](O)[C@H]2N)[C@H](O)[C@@H]1O , CC50 at 48 h observed: 5.4 mM

GET /value?item= C[C@@H](O)[C@H]1O[C@H](O[C@H]2[C@H](O[C@@H]3O[C@H](CN)[C@@H](O)[C@H]3O)[C@@H](O)[C@H](N)C[C@@H]2N)[C@H](N)[C@@H](O)[C@@H]1O &field=CC50 at 48 h returns 22.2 mM

Data provenance is ChEMBL document CHEMBL2203148.
